# test_name: basal S. cerevisiae growth modulation, no modifier, primary screen, OD600, strain BY4716, 24 h, basal condition (AID 1173)
# assay_conditions: OD600, 24 h, higher = more signal, called active from +8 up or from −8 down
Exercise: state measured z-score for each of the molecules provided.
Enter a number only.

z-score in this record for O=C(NCc1ccc(F)cc1)[C@H]1C[C@H]2C(=O)N[C@@H](Cc3ccccc3)C(=O)N2[C@H]1c1ccc(O)cc1 : 1.41

Value of measured z-score for the entry CO[C@H]1O[C@H](CO)[C@@H](OC(=O)Nc2ccc(Br)cc2)[C@H](OC(=O)c2cc3ccccc3[nH]2)[C@H]1OC(=O)c1cc2ccccc2[nH]1 : -0.98

Lab book: z-score of COc1ccc(C(=O)Nc2cccc(CN3C(=O)[C@]4(O[C@H](CCO)[C@@H]([Si](C)(C)c5ccc(OC)cc5)[C@@H]4C)c4ccccc43)c2)cc1 noted as -3.7

Documented z-score of O=C1NC(=O)C2C1C=CC(C(O)c1ccccc1)N2Nc1ccc(Cl)cc1Cl (stereo not drawn) : -17.3

Lab note: C=C(CCCC)C(=O)CC[C@H](OC(C)=O)c1cccc(OCCO)c1 gave z-score of -1.43

Kindly note the recorded z-score for O=C1O[C@@H](c2ccccc2)[C@@H](c2ccccc2)N2[C@@H](c3ccccc3OCCO)[C@]3(C(=O)Nc4ccc(C#CC5=CCCCC5)cc43)[C@@H](C(=O)Nc3nc4ccccc4s3)[C@H]12 , which is 1.26

// CCOc1cc(C(O)C2C=CC3C(=O)N(c4ccccc4)C(=O)C3N2Nc2ccccc2)ccc1O (stereo not drawn) : z-score value = -2.46

Entry [N-]=[N+]=Nc1ccccc1[C@H]1OC(c2ccc(OCCCO)cc2)=N[C@@]1(Cc1ccccc1)C(=O)O , z-score reported as -0.967
